Target: UniProt:P07858
Hi! Could you tag entries with Ki below 7 µM as TRUE, and those at or above as FALSE? Much appreciated.

Use the examples below as a reference point.
N#C/C=C/CNC(=O)CN1C(=O)[C@@H](COC(=O)Nc2ccc(Cl)cc2C(F)(F)F)N=C(c2ccccc2)c2ccccc21: FALSE
CN(C)C(=O)/C=C/CNC(=O)CN1C(=O)[C@@H](COC(=O)Nc2ccc(Cl)cc2C(F)(F)F)N=C(c2ccccc2)c2ccccc21: TRUE
CC(=O)/C=C/CNC(=O)CN1C(=O)[C@@H](COC(=O)Nc2ccc(Cl)cc2C(F)(F)F)N=C(c2ccccc2)c2ccccc21: TRUE

Check if Ki falls below 7 µM for CN(C)C(=O)/C=C/[C@H](CCc1ccccc1)NC(=O)CN1C(=O)[C@@H](COC(=O)Nc2ccc(Cl)cc2C(F)(F)F)N=C(c2ccccc2)c2ccccc21 .
TRUE

Lab log: compare recorded Ki with 7 µM; is it strictly lower for COC(=O)/C=C/[C@H](CCc1ccccc1)NC(=O)CN1C(=O)[C@@H](COC(=O)Nc2ccc(Cl)cc2C(F)(F)F)N=C(c2ccccc2)c2ccccc21 ?
FALSE

Quick check: does COC(=O)/C=C/CNC(=O)CN1C(=O)[C@@H](COC(=O)Nc2ccc(Cl)cc2C(F)(F)F)N=C(c2ccccc2)c2ccccc21 have Ki under 7 µM?
FALSE

* * *

Examples of compounds with documented IC50 follow.
Test system: Plasmodium falciparum
Experiment: Antiplasmodial activity against Plasmodium falciparum FCBR
Type: functional, organism-based
Provide only the numeric value, understood in µM.

The following compounds have reported results that may help.
CC(=O)/C=C/CNC(=O)CN1C(=O)[C@@H](COC(=O)Nc2ccc(Cl)cc2C(F)(F)F)N=C(c2ccccc2)c2ccccc21: 9.3
N#C/C=C/CNC(=O)CN1C(=O)[C@@H](COC(=O)Nc2ccc(Cl)cc2C(F)(F)F)N=C(c2ccccc2)c2ccccc21: 36.1

Turning now to a further record.
Need IC50, item COC(=O)/C=C/CNC(=O)CN1C(=O)[C@@H](COC(=O)Nc2ccc(Cl)cc2C(F)(F)F)N=C(c2ccccc2)c2ccccc21
12

* * *

Experiment: Cytotoxicity against mouse DC
metric: IC50
Enter the number, and then the unit.

Query: IC50; subject: COC(=O)/C=C/CNC(=O)CN1C(=O)[C@@H](COC(=O)Nc2ccc(Cl)cc2C(F)(F)F)N=C(c2ccccc2)c2ccccc21
30.4 µM

* * *

Molecular target: Procathepsin L (Homo sapiens)
Sequence (P07711 whole entry): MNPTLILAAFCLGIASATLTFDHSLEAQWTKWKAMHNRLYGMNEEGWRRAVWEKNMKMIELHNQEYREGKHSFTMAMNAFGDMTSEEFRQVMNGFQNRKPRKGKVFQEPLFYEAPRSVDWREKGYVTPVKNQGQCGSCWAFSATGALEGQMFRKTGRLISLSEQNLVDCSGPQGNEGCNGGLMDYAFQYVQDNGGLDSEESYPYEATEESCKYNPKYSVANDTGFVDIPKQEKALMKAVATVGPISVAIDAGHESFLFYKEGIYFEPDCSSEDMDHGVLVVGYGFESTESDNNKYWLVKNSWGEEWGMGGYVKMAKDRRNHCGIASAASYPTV
Entries whose Ki is below 3 µM take MET; entries at or above 3 µM take NOT MET.

Here's what some known entries look like.
CN(C)C(=O)/C=C/[C@H](CCc1ccccc1)NC(=O)CN1C(=O)[C@@H](COC(=O)Nc2ccc(Cl)cc2C(F)(F)F)N=C(c2ccccc2)c2ccccc21: NOT MET
CC(=O)/C=C/[C@H](CCc1ccccc1)NC(=O)CN1C(=O)[C@@H](COC(=O)Nc2ccc(Cl)cc2C(F)(F)F)N=C(c2ccccc2)c2ccccc21: NOT MET
N#C/C=C/CNC(=O)CN1C(=O)[C@@H](COC(=O)Nc2ccc(Cl)cc2C(F)(F)F)N=C(c2ccccc2)c2ccccc21: NOT MET

In the following, a different molecule is considered.
Determine whether this molecule shows Ki lower than 3 µM (ties excluded): CN(C)C(=O)/C=C/CNC(=O)CN1C(=O)[C@@H](COC(=O)Nc2ccc(Cl)cc2C(F)(F)F)N=C(c2ccccc2)c2ccccc21
MET

* * *

Assay: Inhibition of Plasmodium falciparum falcipain-2
metric: Ki (µM)
Reply numerically in µM, unit not repeated.

A selection of reference data follows.
COC(=O)/C=C/CNC(=O)CN1C(=O)[C@@H](COC(=O)Nc2ccc(Cl)cc2C(F)(F)F)N=C(c2ccccc2)c2ccccc21: 0.017
CC(C)C[C@H](NC(=O)[C@H]1O[C@@H]1C(=O)O)C(=O)NCCCCN=C(N)N: 0.29
N#C/C=C/CNC(=O)CN1C(=O)[C@@H](COC(=O)Nc2ccc(Cl)cc2C(F)(F)F)N=C(c2ccccc2)c2ccccc21: 0.19
CN(C)C(=O)/C=C/CNC(=O)CN1C(=O)[C@@H](COC(=O)Nc2ccc(Cl)cc2C(F)(F)F)N=C(c2ccccc2)c2ccccc21: 0.076

Now for the compound whose Ki we want.
Suppose we examine the compound CN(C)C(=O)/C=C/[C@H](CCc1ccccc1)NC(=O)CN1C(=O)[C@@H](COC(=O)Nc2ccc(Cl)cc2C(F)(F)F)N=C(c2ccccc2)c2ccccc21 ; what Ki value has been reported?
0.076

* * *

Ki, UniProt P07711, per-entry values.
The reply should be a number in µM, with the unit left off.

Which value of Ki has been reported for COC(=O)/C=C/[C@H](CCc1ccccc1)NC(=O)CN1C(=O)[C@@H](COC(=O)Nc2ccc(Cl)cc2C(F)(F)F)N=C(c2ccccc2)c2ccccc21 in the records?
2.7

Field request: Ki | item: COC(=O)/C=C/CNC(=O)CN1C(=O)[C@@H](COC(=O)Nc2ccc(Cl)cc2C(F)(F)F)N=C(c2ccccc2)c2ccccc21
8.4

Data request, read-out Ki, for CC(=O)/C=C/CNC(=O)CN1C(=O)[C@@H](COC(=O)Nc2ccc(Cl)cc2C(F)(F)F)N=C(c2ccccc2)c2ccccc21
5.9
